All values here come from paper PMC4428790.

- experimental_target: M1 receptor (recombinant human membrane, CHO cells) (Homo sapiens)
- Construct: purchased Perkin Elmer Lot no; 1706299; host or cells: CHO cells
- Sequence (P11229 whole entry): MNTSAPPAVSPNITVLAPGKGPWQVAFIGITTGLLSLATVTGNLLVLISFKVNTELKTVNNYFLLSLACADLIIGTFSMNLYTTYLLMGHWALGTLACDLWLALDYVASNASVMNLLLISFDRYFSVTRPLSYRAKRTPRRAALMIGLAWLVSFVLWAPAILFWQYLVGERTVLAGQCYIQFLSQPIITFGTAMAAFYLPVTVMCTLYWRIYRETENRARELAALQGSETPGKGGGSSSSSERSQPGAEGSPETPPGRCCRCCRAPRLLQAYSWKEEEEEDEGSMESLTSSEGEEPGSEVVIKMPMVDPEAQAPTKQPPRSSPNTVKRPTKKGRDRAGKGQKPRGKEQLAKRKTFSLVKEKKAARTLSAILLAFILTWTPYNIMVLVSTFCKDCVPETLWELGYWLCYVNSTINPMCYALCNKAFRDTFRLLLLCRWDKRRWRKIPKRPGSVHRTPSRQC
- measurement_description: radioligand receptor binding assay, [3H]-NMS displacement
- measurement_context: from IC50 by Cheng-Prusoff equation
- Protocol: Recombinant human membrane preparations for M1 (expressed in CHO cells; Lot no. 1706299), 5-HT1A (HEK293 cells; no. 1812363), 5-HT2A (CHO cells; no. 1813092), D1 (L cells; no. 1840059), and D2S (CHO cells; no. 1820984) receptors and MicroScint-O scintillation cocktail were procured from Perkin Elmer (Waltham, MA, USA). […] The assay was performed according to the methods published previously. […] The data were analyzed by non-linear regression using Prism Version 5.0 (GraphPad Inc., San Diego CA, USA). […]
metric: Ki
Please answer using the number first and the unit second.

(Q) Endpoint output: Ki of CC(C)=CC=CC(C)=CC1CCC2C3(C)CCC(O)C(C)(C)C3CCC2(C)C12COC(=O)C2 (stereo not shown) . Value?
(A) 450 nM
